Overview of reported Kd across a group of binders:
# system: T1, recombinant human BCMA Fc(kih) (human, UniProt Q02223 4-53, site-specifically biotinylated at the C-terminal avi-tag ; Biotin on the avi-tag at the C-terminus of the Fc knob chain (tag and Fc left out).)
# T1 construct: Knobs-into-holes heterodimer carrying one BCMA ectodomain; also called huBCMA Fc(kih); huBCMA; not shown: human IgG1 hinge-Fc knob chain with C-terminal avi-tag, and the unfused Fc hole chain
# T1 chain: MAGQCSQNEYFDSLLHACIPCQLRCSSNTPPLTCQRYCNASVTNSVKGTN
# run description: SPR one-shot kinetics (ProteOn XPR36), IgG captured from HEK293 supernatant via anti-human F(ab)2, BCMA as analyte
# Procedure: All experiments were performed at 25° C. using PBST as running buffer (10 mM PBS, pH 7.4 and 0.005% (v/v) Tween®20). A ProteOn XPR36 biosensor equipped with GLC and GLM sensor chips and coupling reagents (10 mM sodium acetate, pH 4.5, sulfo-N-hydroxysuccinimide, 1-ethyl-3-(3-dimethylaminopropyl)-carbodiimide hydrochloride [EDC] and ethanolamine) was purchased from BioRad Inc. (Hercules, Calif.). […] Dissociation was monitored for 5 min Kinetic data were analyzed in ProteOn Manager v. […]
// return numeric value only (unit: nM, not printed)

{"columns": ["binder", "Kd [nM]"],
 "data": [
  ["Mab 22 IgG (antibody, V domains shown, also called antibody 22; clone 22) VH: EVQLLESGGGLVQPGGSLRLSCAASGFTFSDNAMGWVRQAPGKGLEWVSAISGPGSSTYYADSVKGRFTISRDNSKNTLYLQMNSLRAEDTAVYYCAKVLGWFDYWGQGTLVTVSS VL: EIVLTQSPGTLSLSPGERATLSCRASQSVSSYYLAWYQQKPGQAPRLLISGAGSRATGIPDRFSGSGSGTDFTLTISRLEPEDFAVYYCQQYGYPPDFTFGQGTKVEIK", 0.048]
]}

// returns reported Kd for input Mab 21 IgG (antibody, V domains shown, also called antibody 21) VH: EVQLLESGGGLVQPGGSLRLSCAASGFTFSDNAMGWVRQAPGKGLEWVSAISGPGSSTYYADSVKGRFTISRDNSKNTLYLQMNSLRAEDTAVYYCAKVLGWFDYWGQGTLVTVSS VL: EIVLTQSPGTLSLSPGERATLSCRASQSVSEYYLAWYQQKPGQAPRLLIEHASTRATGIPDRFSGSGSGTDFTLTISRLEPEDFAVYYCQQYGYPPDFTFGQGTKVEIK
0.028

Given Mab 42 IgG (antibody, V domains shown, also called antibody 42; clone 42) VH: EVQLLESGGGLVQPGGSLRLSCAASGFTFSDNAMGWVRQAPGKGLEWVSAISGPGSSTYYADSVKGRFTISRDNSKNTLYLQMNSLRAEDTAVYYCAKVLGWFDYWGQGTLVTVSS VL: EIVLTQSPGTLSLSPGERATLSCRASQSVSDEYLSWYQQKPGQAPRLLIHSASTRATGIPDRFSGSGSGTDFTLAISRLEPEDFAVYYCQQYGYPPDFTFGQGTKVEIK , state its recorded Kd.
0.23
